Catalogue of TGI readings, one per entry.
- Test system: RXF 393 renal
- method_notes: NCI tumour cell line growth inhibition, 48 h

[
  {
    "molecule": "C#CCNC(CSSCC(N)C(=O)O)C(=O)O (configuration not stated)",
    "relational_operator": ">",
    "TGI / µM": 100
  },
  {
    "molecule": "c1ccc(-c2nc(-c3ccccn3)nc(-c3ccccn3)n2)nc1",
    "relational_operator": ">",
    "TGI / µM": 100
  },
  {
    "molecule": "CCOC(=O)Cc1nc2ccc3c(c2[nH]c1=O)C(=O)c1ccccc1C3=O",
    "relational_operator": "=",
    "TGI / µM": 63.1
  },
  {
    "molecule": "CO/N=C(\\COc1ccc2c(c1)[nH]c1ccccc12)c1ccc(OC)cc1",
    "relational_operator": ">",
    "TGI / µM": 100
  },
  {
    "molecule": "CCC/C(Cl)=N\\OC(=O)Nc1ccc(F)cc1",
    "relational_operator": "=",
    "TGI / µM": 33.1
  },
  {
    "molecule": "O=c1oc2ccccc2c2c1Sc1ccccc1N2",
    "relational_operator": ">",
    "TGI / µM": 100
  },
  {
    "molecule": "O=S(=O)(Nc1ccc(Br)cc1)c1ccc(-c2cnc(C3CC3)o2)cc1",
    "relational_operator": "=",
    "TGI / µM": 7.6
  },
  {
    "molecule": "CCCN1C(=O)NC(=O)C(CC)(N2C(=O)c3c(F)c(F)c(F)c(F)c3C2=O)C1=O (configuration not stated)",
    "relational_operator": "=",
    "TGI / µM": 4.45
  },
  {
    "molecule": "c1cc[c]([Sn][c]2ccccc2)cc1",
    "relational_operator": "=",
    "TGI / µM": 36.5
  },
  {
    "molecule": "CC12CCC(CC(=O)/C1=C(/Br)I)C2(C)C (configuration not stated)",
    "relational_operator": "=",
    "TGI / µM": 20.6
  },
  {
    "molecule": "CC1=C(C(=O)Nc2ccccc2C)C(c2ccc(Cl)cc2)C(C(=O)Nc2ccccc2C)=C(C)N1",
    "relational_operator": ">",
    "TGI / µM": 100
  },
  {
    "molecule": "Fc1ccc(C(OCCN2CCN(CCCc3ccccc3)CC2)c2ccc(F)cc2)cc1",
    "relational_operator": "=",
    "TGI / µM": 11.3
  },
  {
    "molecule": "IC[P+]1(c2ccccc2)CCCC1",
    "relational_operator": ">",
    "TGI / µM": 100
  },
  {
    "molecule": "COc1cc2c(c3c1c(=O)c1ccccc1n3C)C=CC1(CCCC1)O2",
    "relational_operator": "=",
    "TGI / µM": 22.8
  },
  {
    "molecule": "O=C(O)CC(Cc1ccccc1Cl)C(=O)O (configuration not stated)",
    "relational_operator": ">",
    "TGI / µM": 100
  },
  {
    "molecule": "C[C@@H]1OC(=O)C[C@H]2CC(=O)N(CCC3CN(C(=O)OCc4ccccc4)c4ccccc43)C[C@@H]21 (some centres not stated)",
    "relational_operator": ">",
    "TGI / µM": 100
  },
  {
    "molecule": "O=C(O)CCNS(=O)(=O)c1ccc(NC(=O)c2ccccc2)cc1",
    "relational_operator": ">",
    "TGI / µM": 100
  },
  {
    "molecule": "O=c1[nH]/c(=C/c2ccc(OCc3ccccc3)cn2)c(=O)[nH]/c1=C/c1ccccc1",
    "relational_operator": ">",
    "TGI / µM": 100
  },
  {
    "molecule": "O=c1ncccn1[C@@H]1O[C@H](CO)[C@H](O)C1O (some centres not stated)",
    "relational_operator": ">",
    "TGI / µM": 100
  },
  {
    "molecule": "CC(C)/C(Cl)=N/OC(=O)Nc1ccc(Br)cc1",
    "relational_operator": "=",
    "TGI / µM": 23.9
  },
  {
    "molecule": "O=[N+]([O-])c1ccccc1N=Nc1c(O)[nH]c2cccc(C(F)(F)F)c12",
    "relational_operator": ">",
    "TGI / µM": 100
  },
  {
    "molecule": "CCCCCOc1ccc(C=Nc2ccc(CCc3ccc(N=Cc4ccc(OCCCCC)cc4)cc3)cc2)cc1",
    "relational_operator": ">",
    "TGI / µM": 100
  },
  {
    "molecule": "COc1ccc(N2CC(=O)N(C(=O)COc3ccc(OCC(=O)N4C(=O)CN(c5ccc(OC)cc5)C4=S)cc3)C2=S)cc1",
    "relational_operator": ">",
    "TGI / µM": 100
  },
  {
    "molecule": "COC1CC(N)(c2ccccc2)C(O)C(C)O1 (configuration not stated)",
    "relational_operator": ">",
    "TGI / µM": 100
  },
  {
    "molecule": "C/C(CC(O)(C(F)(F)F)C(F)(F)F)=N\\NC(N)=O",
    "relational_operator": ">",
    "TGI / µM": 10
  },
  {
    "molecule": "NC(=O)Nc1c(Cl)cc(S(N)(=O)=O)cc1Cl",
    "relational_operator": ">",
    "TGI / µM": 100
  },
  {
    "molecule": "Nc1n(CC(=O)c2ccccc2)nc2sc(-c3ccccc3)n[n+]12",
    "relational_operator": "=",
    "TGI / µM": 25.1
  },
  {
    "molecule": "C=CCc1c(Cl)nc(Cl)nc1Cl",
    "relational_operator": "=",
    "TGI / µM": 0.601
  },
  {
    "molecule": "COc1cc(/C=C/C(=O)/C=C/c2cc(OC)c3c(c2)OCO3)cc2c1OCO2",
    "relational_operator": "=",
    "TGI / µM": 6.57
  },
  {
    "molecule": "NC(=O)CNC(=O)[C@@H]1CC(OCCC(=O)O)CN1C(=O)C1CCCN1C(=O)OCc1ccccc1 (some centres not stated)",
    "relational_operator": ">",
    "TGI / µM": 100
  },
  {
    "molecule": "Cc1c(OC(C)C(=O)O)ccc2c(-c3ccccc3)cc(=O)oc12 (configuration not stated)",
    "relational_operator": ">",
    "TGI / µM": 100
  },
  {
    "molecule": "O=C(Nc1ccc(N2C(=O)CSC2c2ccccc2O)cc1)c1ccc(N2C(=O)CSC2c2ccccc2O)cc1 (configuration not stated)",
    "relational_operator": ">",
    "TGI / µM": 100
  },
  {
    "molecule": "COc1cc(C)ccc1C(=O)c1ccc(C)cc1OC",
    "relational_operator": "=",
    "TGI / µM": 4.53
  },
  {
    "molecule": "CN(C)CCNc1ccc2c(=O)n(CCN(C)C)c(=O)n3c4ccc(O)cc4c(=O)c1c23",
    "relational_operator": "=",
    "TGI / µM": 0.224
  },
  {
    "molecule": "C[N+](C)(C)CCC(=O)CC[N+](C)(C)C",
    "relational_operator": "=",
    "TGI / µM": 36
  },
  {
    "molecule": "CN(C)CCNC(=O)Cn1ccc(=O)c2cc([N+](=O)[O-])ccc21",
    "relational_operator": ">",
    "TGI / µM": 100
  },
  {
    "molecule": "CC(C)(C)c1ccc(OCCOc2ccc(C(C)(C)C)cc2N)c(N)c1",
    "relational_operator": ">",
    "TGI / µM": 100
  }
]
